The reported numbers originate from a melting point compilation (Tetko et al.; mined from patent text by program, amines drawn as free bases though some values may be those of a salt).

recorded-metric: melting point

[[record]]
compound = "O=[N+]([O-])c1cc(NCCO)c(Cl)cc1NCCO"
recorded_metric = "melting point"
observed_result = "127 to 128 °C"


**Query** Recorded melting point for "COc1ccc(CN2CCN(CCCN3CCN(Cc4ccc(OC)cc4)CC3)CC2)cc1" , please?
**Result** 86 to 87 °C

**Query** Same for "Sc1ccc2ccncc2c1Cl"
**Result** 118 to 122 °C

**Query** Same for "CCc1nc2ncnn2c(N)c1CCCCC(F)=C(F)F"
**Result** 199 °C

**Query** Same for CCCC12CCC(=O)C=C1c1c(cc(OCC(=O)OCC)c(Cl)c1Cl)C2OC(C)=O (stereo not drawn)
**Result** 128 to 130 °C
